tested on: 4T1; experiment: Alamar blue cytotoxicity assay; type: cell-based, mouse; conditions: Mus musculus, 72 h, read-out: IC50 and 95%CI
Recorded Endpoint: pIC50
Reminder that pIC50 is minus the log10 of a molar concentration.

Prompt line: Entry COc1cccc2c1C(=O)c1c(O)c3c(c(O)c1C2=O)C[C@@](O)(C(=O)CO)C[C@@H]3O[C@H]1C[C@H](N)[C@H](O)[C@H](C)O1 [DOX, Doxorubicin, reference compound] has what pIC50?
Response line: 5.77

* * *

test system: A-375; assay: Alamar blue cytotoxicity assay; type: cell-based, human; settings: Homo sapiens, 72 h, read-out: IC50 and 95%CI
Recorded Endpoint: IC50
Please don't drop the unit; write it after the number.

Prompt line: Entry COc1cccc2c1C(=O)c1c(O)c3c(c(O)c1C2=O)C[C@@](O)(C(=O)CO)C[C@@H]3O[C@H]1C[C@H](N)[C@H](O)[C@H](C)O1 [DOX, Doxorubicin, reference compound] has what IC50?
Response line: 160 nM
